system: P12-Ichikawa; experiment: cell viability relative to DMSO control; higher = less cytotoxic; details: RPMI 5 mM glucose + 10% dialyzed FBS; 48 h; 1.71 µM
Cut-off 80% on cell viability: below means y, at or above means n.

Past entries and their recorded results:
# check: cell viability < 80% for O=C1[C@H](Cc2ccc(O)cc2)N2C(=O)CCN(C(=O)NCc3ccccc3)[C@H]2CN1Cc1cccc2ccccc12
y

# iterate: CNCC(O)c1ccc(O)cc1 (configuration not stated)
n

# iterate: O=C1NC(=O)/C(=C/c2ccc3nccc(-c4ccncc4)c3c2)S1
y

# iterate: Cc1c(C)n(Cc2ccc(-c3ccccc3C(=O)O)cc2)c2ccc(C(=O)N[C@@H](C)c3ccc([N+](=O)[O-])cc3)cc12
n

Please look at the following molecule next.
# check: cell viability < 80% for COCC1(CO)C(=O)C2CCN1CC2 (configuration not stated)
n

----------
test system: NOMO1; test: cell viability relative to DMSO control; higher = less cytotoxic; details: RPMI 5 mM glucose + 10% dialyzed FBS; 48 h; 0.000781 µM
Quick list: cell viability per entry.
Express your answer in %, writing the number without its unit.

Query: cell viability; subject: CC[C@]12CC[C@H]3[C@@H](CCC/4=C/C(=O)CC[C@H]34)[C@@H]1\C=C/[C@@]2(O)C#C
116

# iterate: CC(C)c1nc(CN(C)C(=O)N[C@H](C(=O)N[C@@H](Cc2ccccc2)C[C@H](O)[C@H](Cc2ccccc2)NC(=O)OCc2cncs2)C(C)C)cs1
86.5

# iterate: FC1=CC=C(C=C1)N2/C=C\C=C(C(=O)NC3=CC=C(OC4=C5C=C[NH]C5=NC=C4)C(=C3)F)/C2=O
96.1

# iterate: O=C1c2ccccc2-[n+]2ccc3c([nH]c4ccccc43)c21
91.3

# iterate: NNCCc1ccccc1
116

# iterate: CCOC(=O)N1CCN(/[N+]([O-])=N/Oc2ccc([N+](=O)[O-])cc2C#N)CC1
92.8

# iterate: COc1cc(OC2CCN(C)CC2)ccc1Nc1ncc2c(n1)n(C1CCCC1)c(=O)n2C
76.6

Now examine the next entry.
Query: cell viability; subject: Cc1ccccc1C(=O)c1ccc(Nc2ccc(Br)cc2N)cc1Cl
131

----------
tested on: SEM cells; assay: AUC of viability dose-response curve (% viability x log10 dose units); higher = less sensitive; conditions: RPMI 5 mM glucose + 10% dialyzed FBS; 48 h
Quick list: AUC of viability dose-response curve per entry.
Answer with a number only.

Query: AUC of viability dose-response curve; subject: CC(C)c1ccc2c(c1)c(SC(C)(C)C)c(CC(C)(C)C(=O)[O-])n2Cc1ccc(Cl)cc1
455

# iterate: CCN(CC)CCOc1ccc(/C(=C(\Cl)c2ccccc2)c2ccccc2)cc1
470

Now examine the next entry.
Query: AUC of viability dose-response curve; subject: CN(C)[S+](=O)([O-])c1ccc2c(c1)C(=Cc1cc3c([nH]1)CCCC3)C(=O)N2
459

----------
Quick list: cell viability per entry.
system: SEM cells; assay: cell viability relative to DMSO control; higher = less cytotoxic; settings: RPMI 5 mM glucose + 10% dialyzed FBS; 48 h; 15.4 µM
Express your answer in %, writing the number without its unit.

Past entries and their recorded results:
Query: cell viability; subject: C[C@@H]1COCCN1c1cc(C2([S@+](C)(=N)[O-])CC2)nc(-c2ccnc3[nH]ccc23)n1
20.6

# iterate: CC(C)(C)OC(=O)N[C@H]1CCCCC/C=C\[C@@H]2C[C@@]2(C(=O)N[S+](=O)([O-])C2CC2)NC(=O)[C@@H]2C[C@@H](OC(=O)N3Cc4cccc(F)c4C3)CN2C1=O
91.6

# iterate: CNCCCC12CCC(c3ccccc31)c1ccccc12
118

# iterate: Cc1c(C)n(Cc2ccc(-c3ccccc3C(=O)O)cc2)c2ccc(C(=O)N[C@@H](C)c3ccc([N+](=O)[O-])cc3)cc12
115

# iterate: CC(C)c1ccc2c(c1)c(SC(C)(C)C)c(CC(C)(C)C(=O)[O-])n2Cc1ccc(Cl)cc1
97.5

---
Query: cell viability; subject: CC(C)(O)CC[C@@H](O)[C@](C)(O)[C@H]1CC[C@@]2(O)C/3=C/C(=O)[C@@H]4C[C@@H](O)[C@@H](O)C[C@]4(C)[C@H]3CC[C@]12C
94.2

# iterate: OC(c1cc(C(F)(F)F)nc2c(C(F)(F)F)cccc12)C1CCCCN1 (configuration not stated)
130

Origin of values: the supplement of paper PMC11451515
